# TEST_DESCRIPTION: Biodistribution experiments in normal mice after i.v. injection
# Type: in vivo
# CONDITION_DETAILS: male, ddY, mouse, in vivo, iv, total radioactivity, Biodistribution of radioactivity, Muscle
Where a SMILES comes first, the peptide text is derived from it. [ ]: non-standard residue; d: D form. The star is where a group is joined. DOTA = O=C(O)CN1CCN(CC(=O)O)CCN(CC(=O)*)CCN(CC(=O)O)CC1
TEST_READOUT: tissue uptake dose at 1 h (%ID)
Give bare numbers, in %ID.

Data point: O=C(O)C[C@@H](NC(=O)[C@@H](CC(=O)O)NC(=O)[C@@H](CC(=O)O)NC(=O)[C@@H](CC(=O)O)NC(=O)[C@@H](CC(=O)O)NC(=O)CN1CCN(CC(=O)O)CCN(CC(=O)O)CCN(CC(=O)O)CC1)C(=O)O [^67Ga-DOTA-(D-Asp)5, metal not drawn] ({DOTA}-[dD][dD][dD][dD][dD]-OH) ; tissue uptake dose at 1 h = 0.13

###

# TEST_DESCRIPTION: Biodistribution experiments in normal mice after i.v. injection
# Format: in vivo
# CONDITION_DETAILS: male, ddY, mouse, in vivo, iv, total radioactivity, Biodistribution of radioactivity, Muscle
# Protocol: Experiments with animals were conducted in strict accordance with the Guidelines for the Care and Use of Laboratory Animals of Kanazawa University. […] Complete left femurs were isolated as representative bone samples, radioactivity was determined using gamma counters (AccuFLEX γ ARC-8001 in the case of ^18F, Hitachi, Ltd.), and background counts and physical decay were corrected during counting.
Where a SMILES comes first, the peptide text is derived from it. [ ]: non-standard residue; d: D form. The star is where a group is joined. DOTA = O=C(O)CN1CCN(CC(=O)O)CCN(CC(=O)*)CCN(CC(=O)O)CC1
Consider the cut-off 0.6 %ID. If the recorded tissue uptake dose at 10 min is strictly smaller, the label is t; if not, the label is f.

Task: State whether 0.6 %ID exceeds tissue uptake dose at 10 min recorded for O=C(O)CC[C@@H](NC(=O)[C@@H](CCC(=O)O)NC(=O)[C@@H](CCC(=O)O)NC(=O)[C@@H](CCC(=O)O)NC(=O)[C@@H](CCC(=O)O)NC(=O)[C@@H](CCC(=O)O)NC(=O)[C@@H](CCC(=O)O)NC(=O)[C@@H](CCC(=O)O)NC(=O)[C@@H](CCC(=O)O)NC(=O)[C@@H](CCC(=O)O)NC(=O)[C@@H](CCC(=O)O)NC(=O)[C@@H](CCC(=O)O)NC(=O)[C@@H](CCC(=O)O)NC(=O)[C@@H](CCC(=O)O)NC(=O)CN1CCN(CC(=O)O)CCN(CC(=O)O)CCN(CC(=O)O)CC1)C(=O)O [^67Ga-DOTA-(D-Glu)14, metal not drawn] .
Result: f

Task: Quick check: does O=C(O)C[C@@H](NC(=O)[C@@H](CC(=O)O)NC(=O)[C@@H](CC(=O)O)NC(=O)[C@@H](CC(=O)O)NC(=O)[C@@H](CC(=O)O)NC(=O)CN1CCN(CC(=O)O)CCN(CC(=O)O)CCN(CC(=O)O)CC1)C(=O)O [^67Ga-DOTA-(D-Asp)5, metal not drawn] ({DOTA}-[dD][dD][dD][dD][dD]-OH) have tissue uptake dose at 10 min under 0.6 %ID?
Result: f
